Where do the numbers come from? From PubChem BioAssay (NCATS).

Assay: Quantitative highthroughput screen to assess conditional lethalithy of P12 Ichikawa cells grown in RPMI1640 with untreated serum (RPMI+s) (AID 1963881); also: nearly all actives have a fitted effect of over 35% in size
Details: ATP luminescence, 48 h; viability; series mostly up to 45.8 µM
Records with an inconclusive call do not appear. Active and inactive are the calls of the source. Calls follow the shape of the dose curve; as a rule, active = well fitted cell-killing curve with a large enough effect; inconclusive = small, poorly fitted or top-dose-only effect; inactive = flat fitted curve, though single readings scatter.
Hi there, use one of these labels in your reply, thanks! active, inactive

Task item: Identify the outcome logged in this assay for the compound shown: "Cc1ccnc(NS(=O)(=O)c2ccc(NC(=O)Nc3ccc(S(=O)(=O)Nc4nccc(C)n4)cc3)cc2)n1"
Reply: active

Task item: What was the test verdict on "CS(=O)(=O)c1ccc(C(=O)Nc2ccc(Cl)c(-c3ccccn3)c2)c(Cl)c1" ?
Reply: inactive

Task item: Hi team, can someone confirm the assay call for "Cc1cc2c(F)c(Oc3ncnn4cc(OC[C@@H](C)O)c(C)c34)ccc2[nH]1" ?
Reply: active

Task item: Please indicate how the test categorized "CN(C)CCN1C(=O)c2cccc3cc(N)cc(c23)C1=O" .
Reply: active

Task item: Hi, sorry to bother you, what did the test record for "COc1ccc2c(c1)c(CC(=O)O)c(C)n2C(=O)c1ccc(Cl)cc1" ?
Reply: inactive

Task item: Call for entry "O=S(=O)(O)CCSSCCS(=O)(=O)O" :
Reply: inactive

Task item: For CNCCN(C)Cc1cn[nH]c1-c1ccc(OC2CC(OCCC3CCOCC3)C2)cc1 (configuration not stated) , which call appears in the assay record?
Reply: inactive

Task item: For this compound, state the assay outcome: CCC1=C(C)CN(C(=O)NCCc2ccc(S(=O)(=O)NC(=O)NC3CCC(C)CC3)cc2)C1=O (configuration not stated)
Reply: inactive

Task item: Which outcome was assigned to "CCCCc1ccc2nc(NC(=O)OC)[nH]c2c1" in this test?
Reply: active

Task item: Test call for this compound, please: "CCCCn1c(=O)n(Cc2ccccc2F)c(=O)c2[nH]c(Cc3ccc(NC(C)=O)cc3)nc21"
Reply: inactive

Task item: Each compound tested received a call. Report the one for "OC[C@H]1O[C@@H](Oc2ccc(O)cc2)[C@H](O)[C@@H](O)[C@H]1O" .
Reply: inactive

Task item: Just curious, what result did "OCCn1cc(-c2ccc3c(c2)CCC3=NO)c(-c2ccncc2)n1" get here?
Reply: inactive

Task item: Recorded test outcome, item OC(CN1CCN(c2cccc(Cl)c2)CC1)C(c1ccccc1)c1ccccc1 (configuration not stated)
Reply: active

Task item: What classification did "Cc1cccc(-c2nn(C(=S)Nc3ccccc3)cc2-c2ccnc3ccccc23)n1" end up with in this test?
Reply: inactive

Task item: For this compound, state the assay outcome: CCCCCCCCCCCC(CC1OC(=O)C1CCCCCC)OC(=O)C(CC(C)C)NC=O (configuration not stated)
Reply: active

Task item: Short answer needed: outcome of this test for "Cc1noc(NS(=O)(=O)c2ccc(N)cc2)c1C" ?
Reply: inactive

Task item: GET /call?item= CCOc1cc(N)c(Cl)cc1C(=O)NCC1CN(Cc2ccc(F)cc2)CCO1 (configuration not stated) returns the recorded outcome of this test.
Reply: inactive

Task item: // return assay outcome for "CC1(C)S[C@H]2[C@H](NC(=O)[C@@H](N)c3ccc(O)cc3)C(=O)N2[C@@H]1C(=O)O"
Reply: active

Task item: Just curious, what result did "COc1ccc(C[C@@H](C)[C@@H](C)Cc2ccc(OC)c(OC)c2)cc1OC" get here?
Reply: active

Task item: Entry "Cc1ccc(NC(=O)c2cccc(N(C)C)c2)cc1NC(=O)c1ccc(O)cc1" : call = ?
Reply: inactive

Task item: Could you check what this test reported for "CN1CCC[C@H]1CCO[C@](C)(c1ccccc1)c1ccc(Cl)cc1" ?
Reply: inactive

Task item: # fetch the recorded call for "CNC(=O)c1ccccc1Nc1nc(Nc2ccc(N3CCOCC3)cc2OC)ncc1Cl" here
Reply: active

Task item: Please share the test call associated with "COc1ccc2c(c1)c(CC(=O)OCC(=O)O)c(C)n2C(=O)c1ccc(Cl)cc1" .
Reply: inactive

Task item: Tell me the assay call for "O=C1NC(=O)C(=Cc2ccc(-c3ccc(F)cc3)o2)S1" please.
Reply: inactive

Task item: Please let me know the test result on file for "CC[C@H]1OC(=O)[C@H](C)C(=O)[C@H](C)[C@@H](O[C@H]2O[C@H](C)C[C@H](N(C)C)[C@@H]2O)[C@](C)(OC)C[C@@H](C)C(=O)[C@H](C)[C@H]2N(CCCCn3cnc(-c4cccnc4)c3)C(=O)O[C@]12C" .
Reply: inactive

Task item: # fetch the recorded call for "Nc1nc2c(c(=O)[nH]1)N(C=O)[C@H](CNc1ccc(C(=O)N[C@@H](CCC(=O)O)C(=O)O)cc1)CN2" here
Reply: active

Task item: Assay result, entry "CCCCc1oc2ccccc2c1C(=O)c1cc(I)c(OCCN(CC)CC)c(I)c1" — outcome?
Reply: inactive

Task item: Fill in: this test's call for "CC[C@]1(O)C[C@H]2CN(CCc3c([nH]c4ccccc34)[C@@](C(=O)OC)(c3cc4c(cc3OC)N(C=O)[C@H]3[C@@](O)(C(=O)OC)[C@H](OC(C)=O)[C@]5(CC)C=CCN6CC[C@]43[C@@H]65)C2)C1" is ___
Reply: active

Task item: Please share the test call associated with "O=C(Nc1cccc2c(=O)cc(-c3nn[nH]n3)oc12)c1ccc(OCCCCc2ccccc2)cc1" .
Reply: active

Task item: What outcome does the record of this test show for "COc1cc(N2CCC(C(N)=O)CC2)ccc1Nc1nc(N)c(Cl)c(Nc2ccccc2S(=O)(=O)C(C)C)n1" ?
Reply: active

Task item: Any idea what this test logged for "CCc1cnn2c(NCc3ccc[n+]([O-])c3)cc(N3CCCC[C@@H]3CCO)nc12" ?
Reply: active

Task item: Could you kindly confirm the outcome this assay logged for "CCC(=C(CC)c1ccc(O)cc1)c1ccc(O)cc1" ?
Reply: inactive
